# target under test: hCRTH2 receptor (Homo sapiens)
# Construct: expressed in transfected cells; host or cells: HEK293
# Sequence (Q9Y5Y4 1-395): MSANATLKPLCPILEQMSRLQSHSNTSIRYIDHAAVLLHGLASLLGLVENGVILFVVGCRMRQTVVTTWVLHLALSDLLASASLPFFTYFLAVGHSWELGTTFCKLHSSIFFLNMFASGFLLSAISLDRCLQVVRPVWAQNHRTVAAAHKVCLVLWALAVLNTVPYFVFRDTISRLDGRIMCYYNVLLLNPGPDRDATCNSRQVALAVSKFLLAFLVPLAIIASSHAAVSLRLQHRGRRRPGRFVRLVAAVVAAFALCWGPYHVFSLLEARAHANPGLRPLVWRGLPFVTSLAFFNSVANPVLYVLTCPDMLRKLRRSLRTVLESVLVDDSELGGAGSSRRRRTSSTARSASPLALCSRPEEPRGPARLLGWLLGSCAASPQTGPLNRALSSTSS
# experimental details: Radioligand displacement assay (3H-PGD2) on hCRTH2 receptor membranes
# Format: binding
# measurement conditions: antagonistic activity, 3H-PGD2 radioligand displacement, HEK293-hCRTH2 membranes
experimental endpoint: IC50 (µM)

Below: 2 molecules and their reported IC50.
# molecule, target under test, IC50, µM
measured = [
    ("O=C(O)COc1ccc(Cl)cc1C1c2ccccc2CCN1C(=O)COc1ccccc1F (racemic)", "hCRTH2 receptor (Homo sapiens)", 0.0707),
    ("O=C(O)COc1ccc(Cl)cc1C1c2ccccc2CN1C(=O)CCOc1cccc(F)c1 (racemic)", "hCRTH2 receptor (Homo sapiens)", 0.123),
]

[1] Cc1ncccc1OCC(=O)N1CCc2ccccc2C1c1cc(Cl)ccc1OCC(=O)O (racemic)
[2] Cc1ccc(CCC(=O)N2CCc3ccccc3C2c2cc(Cl)ccc2OCC(=O)O)c(C)c1 (racemic)
Enquiry: When 1 and 2 are compared, which has the higher number for IC50? Give the chosen item's label as your response.
Return: 1
(1: 0.132 µM, 2: 0.0696 µM)

====

# target under test: hCRTH2 receptor (Homo sapiens, UniProt Q9Y5Y4)
# Construct: expressed in transfected cells; host or cells: HEK293
# experimental details: Radioligand displacement assay (3H-PGD2) on hCRTH2 receptor membranes
# Format: binding
# measurement conditions: antagonistic activity, 3H-PGD2 radioligand displacement, HEK293-hCRTH2 membranes
experimental endpoint: IC50 (nM)

[a] Cn1cncc1COC(=O)N1CCc2ccccc2[C@H]1c1cc(Cl)ccc1OCC(=O)O
[b] O=C(O)COc1ccc(Cl)cc1C1c2ccccc2CN1C(=O)C1CC1c1ccccc1F (stereo not shown)
[c] Cc1cc(C)n(CCOC(=O)N2CCc3ccccc3[C@H]2c2cc(Cl)ccc2OCC(=O)O)n1
[d] O=C(O)COc1ccc(Cl)cc1C1c2ccccc2CCN1C(=O)CN1Cc2ccccc2C1 (racemic)
Enquiry: Rank items: key IC50, increasing. Return the labels ranked in the requested order, please.
Return: a, c, b, d

[1] O=C(O)COc1ccc(Cl)cc1C1c2ccccc2CN1C(=O)CCn1ncc2c(F)cccc21 (single isomer, unassigned) [Example 535]
[2] Cc1ncc(COC(=O)N2CCc3cc(F)ccc3[C@H]2c2cc(Cl)ccc2OCC(=O)O)s1
[3] COc1cc(OCC(=O)N2CCc3ccccc3C2c2cc(Cl)ccc2OCC(=O)O)cnc1OC (racemic)
Enquiry: Hello, I need these entries ordered by IC50, highest reading first. Thanks! Return the labels ranked in the requested order, please.
Return: 3, 1, 2
(3: 316 nM, 1: 15.1 nM, 2: 3.2 nM)

[I] COc1ccccc1COC(=O)N1CCc2ccccc2[C@H]1c1cc(Cl)ccc1OCC(=O)O
[II] O=C(O)COc1ccc(Cl)cc1C1c2ccccc2CCN1C(=O)COc1cnccc1Cl (racemic)
[III] Cc1cnc(COC(=O)N2CCc3cc(F)ccc3[C@H]2c2cc(Cl)ccc2OCC(=O)O)s1
Enquiry: Order the entries by their reported IC50, beginning at the minimum. Return the labels ranked in the requested order, please.
Return: I, III, II
(I: 3.58 nM, III: 8.67 nM, II: 400 nM)
